Growth inhibition rating, FUSOXC: recorded values
Tested on: Fusarium oxysporum f. sp. cucumerinum
protocolText: In vitro fungicidal evaluation, FUSOXC; further: ranges in brackets are in %
Format: cell-based
condition: 25 ppm; 3-7 days at 21° C.

Known Growth inhibition rating, FUSOXC results, listed for orientation:
compound="Fc1ccc(B(OC(c2ccc(Cl)cc2)(c2cncnc2)c2ccccc2Cl)c2ccc(F)cc2)cc1 (stereo not drawn) [Compound 5]" assaytarget="Fusarium oxysporum f. sp. cucumerinum" measuredquantity="Growth inhibition rating, FUSOXC" datavalue="0 (0)"
compound="Fc1ccc(B(OC(Cn2ccnc2)c2ccc(Cl)cc2Cl)c2ccc(F)cc2)cc1 (stereo not drawn) [Compound 1]" assaytarget="Fusarium oxysporum f. sp. cucumerinum" measuredquantity="Growth inhibition rating, FUSOXC" datavalue="5 (60-89)"
compound="CC(C)(C)C(CCc1ccc(Cl)cc1)(Cn1cncn1)OB(c1ccc(F)cc1)c1ccc(F)cc1 (stereo not drawn) [Compound 4]" assaytarget="Fusarium oxysporum f. sp. cucumerinum" measuredquantity="Growth inhibition rating, FUSOXC" datavalue="9 (100)"
compound="Clc1ccc(C(Cn2ccnc2)OB(c2ccccc2)c2ccccc2)c(Cl)c1 (stereo not drawn) [Compound 6]" assaytarget="Fusarium oxysporum f. sp. cucumerinum" measuredquantity="Growth inhibition rating, FUSOXC" datavalue="9 (100)"

Given item Clc1ccc(C(OB(c2ccccc2)c2ccccc2)(c2cncnc2)c2ccccc2Cl)cc1 (stereo not drawn) [Compound 2] , the value recorded as its Growth inhibition rating, FUSOXC is 9 (100)

Given item CC(C)(C)C(CCc1ccc(Cl)cc1)(Cn1cncn1)OB(c1ccccc1)c1ccccc1 (stereo not drawn) [Compound 3] , the value recorded as its Growth inhibition rating, FUSOXC is 9 (100)

Entry source: patent US5591726A
